- Target or system: DRB1*1302 (Homo sapiens, UniProt P01903+P01911, A100E/A169T/K41T/L162R/M171V/P40S/Q125H/Q178H/Q39Y/Q99D/R42S/S66N/T262R/V115G/W38E/Y61H)
- Sequence (P01903 26-254 limits assumed, other chains not shown): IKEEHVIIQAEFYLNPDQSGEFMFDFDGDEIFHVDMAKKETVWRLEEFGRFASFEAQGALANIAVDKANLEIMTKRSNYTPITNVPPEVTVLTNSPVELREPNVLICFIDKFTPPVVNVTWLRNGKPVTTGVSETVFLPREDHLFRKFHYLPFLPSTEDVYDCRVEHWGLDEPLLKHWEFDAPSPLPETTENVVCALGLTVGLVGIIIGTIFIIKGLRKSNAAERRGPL
- Measurement notes: biochemical
- Format: binding
No end group written: not given here.
Assign IC50 to each entry below.
Write it as a number; the unit nM goes unstated.

Consider FIHFLQGAIISFVNS [Peptide 89.0088] . Its measured IC50 is 1590

What the record says about ISEVMGDTPEWIQRL [Peptide 90.0052] : IC50 is 9

Per the record, RLNLDNDEDKENNGD [Peptide 90.0144] has IC50 of 1390
